target: human full-length recombinant PKC βII (Homo sapiens, UniProt P05771); construct: Active human full-length recombinant PKC βII; purchased Invitrogen GmbH, Darmstadt, Germany; experiment: Determination of PKC βII inhibition (Caliper mobility-shift kinase assay, Fluorescein-RFARKGSLRQKNV peptide substrate); format: biochemical; details: example compounds at a final concentration of 1.14 μM (±0.15 μM)
Sequence (P05771 1-673 isoform P05771-2): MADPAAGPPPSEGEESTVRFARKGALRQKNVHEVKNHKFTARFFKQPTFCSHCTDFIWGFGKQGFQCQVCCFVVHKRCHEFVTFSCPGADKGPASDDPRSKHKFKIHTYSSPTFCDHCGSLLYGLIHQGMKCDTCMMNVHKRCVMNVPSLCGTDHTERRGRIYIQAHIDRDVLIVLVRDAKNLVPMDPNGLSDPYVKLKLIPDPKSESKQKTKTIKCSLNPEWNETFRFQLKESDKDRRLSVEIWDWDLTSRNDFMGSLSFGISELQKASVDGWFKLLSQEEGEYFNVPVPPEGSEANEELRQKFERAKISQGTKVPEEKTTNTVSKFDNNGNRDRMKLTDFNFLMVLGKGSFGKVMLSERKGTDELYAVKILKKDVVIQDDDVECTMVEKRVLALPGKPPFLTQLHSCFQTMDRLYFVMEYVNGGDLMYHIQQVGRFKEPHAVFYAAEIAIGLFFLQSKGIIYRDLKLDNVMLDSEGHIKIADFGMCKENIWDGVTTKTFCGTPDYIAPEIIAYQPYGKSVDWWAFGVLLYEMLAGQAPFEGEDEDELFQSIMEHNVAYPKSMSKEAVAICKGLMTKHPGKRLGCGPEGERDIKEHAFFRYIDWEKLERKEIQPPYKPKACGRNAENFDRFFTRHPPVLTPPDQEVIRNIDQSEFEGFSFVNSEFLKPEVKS
observed-property: inhibition at 1.14 µM (%)

**Query** Answer with the recorded inhibition at 1.14 µM for the compound listed here: Cc1n[nH]c2nc(-c3ccc(O)cc3)cc(C(=O)N3C[C@H]4CC[C@@H](C3)C4N)c12 (some centres unmarked)
**Result** 100

**Query** Answer with the recorded inhibition at 1.14 µM for the compound listed here: CCC1(NC(=O)c2cc(-c3ccc(O)cc3)nc3[nH]nc(C)c23)CCCNC1 (centres unmarked)
**Result** 83

**Query** Answer with the recorded inhibition at 1.14 µM for the compound listed here: CCC(CCN)NC(=O)c1cc(-c2ccc(O)cc2)nc2[nH]nc(C)c12 (centres unmarked)
**Result** 90

**Query** Answer with the recorded inhibition at 1.14 µM for the compound listed here: CCc1n[nH]c2nc(-c3ccc(O)cc3)cc(C(=O)N3CCC4(CCNC4)C3)c12 (centres unmarked)
**Result** 67

**Query** Answer with the recorded inhibition at 1.14 µM for the compound listed here: Cc1n[nH]c2nc(-c3ccc(O)cc3)cc(C(=O)N3CC4CNCC4C3)c12 (centres unmarked)
**Result** 99

**Query** Answer with the recorded inhibition at 1.14 µM for the compound listed here: Cc1n[nH]c2nc(-c3ccc(O)cc3F)cc(C(=O)N3C[C@@H](c4ccccc4)NC[C@@H]3C)c12 (relative stereo)
**Result** 83

**Query** Answer with the recorded inhibition at 1.14 µM for the compound listed here: CC[C@H]1CNCCN1C(=O)c1cc(-c2ccc(O)cc2)nc2[nH]nc(C)c12
**Result** 110

**Query** Answer with the recorded inhibition at 1.14 µM for the compound listed here: Cc1n[nH]c2nc(-c3ccc(O)cc3)cc(C(=O)N3CCNCC3c3ccccc3Cl)c12 (centres unmarked)
**Result** 93

====

molecular target: human full-length recombinant PKC βII (Homo sapiens, UniProt P05771); construct: Active human full-length recombinant PKC βII; purchased Invitrogen GmbH, Darmstadt, Germany; test: Determination of PKC βII inhibition (Caliper mobility-shift kinase assay, Fluorescein-RFARKGSLRQKNV peptide substrate); type: biochemical; settings: example compounds at a final concentration of 1.14 μM (±0.15 μM)
observed-property: inhibition at 1.14 µM (%)

**Query** Answer with the recorded inhibition at 1.14 µM for the compound listed here: Cc1n[nH]c2nc(-c3ccc(O)cc3)cc(C(=O)N3CC(C)NCC3c3ccccc3)c12 (stereo not shown)
**Result** 92

**Query** Answer with the recorded inhibition at 1.14 µM for the compound listed here: Cc1n[nH]c2nc(-c3ccc(O)cc3)cc(C(=O)NCCC3CCCN3C)c12 (stereo not shown)
**Result** 85

**Query** Answer with the recorded inhibition at 1.14 µM for the compound listed here: Cc1n[nH]c2nc(-c3ccc(O)cc3F)cc(C(=O)N3CCNCC3(C)C)c12
**Result** 96

**Query** Answer with the recorded inhibition at 1.14 µM for the compound listed here: Cc1n[nH]c2nc(-c3ccc(O)cc3)cc(C(=O)NC[C@H]3CC[C@@H](N)CC3)c12
**Result** 53

**Query** Answer with the recorded inhibition at 1.14 µM for the compound listed here: CC[C@H]1CN(C(=O)c2cc(-c3ccc(O)cc3)nc3[nH]nc(C)c23)CCN1
**Result** 100

**Query** Answer with the recorded inhibition at 1.14 µM for the compound listed here: Cc1n[nH]c2nc(-c3ccc(O)cc3)cc(C(=O)N3CCN(CCS(C)(=O)=O)CC3)c12
**Result** 66

(P) Cc1n[nH]c2nc(-c3ccc(O)c(F)c3)cc(C(=O)N3CCNC[C@@H]3C)c12
(Q) Cc1n[nH]c2nc(-c3ccc(O)cc3)cc(C(=O)NCC(c3ccccc3)N3CCOCC3)c12 (stereo not shown)
(R) Cc1n[nH]c2nc(-c3ccc(O)cc3)cc(C(=O)NC[C@H]3CC[C@H](N)CC3)c12
**Query** Please give the order of these compounds when sorted by inhibition at 1.14 µM, largest value leading. Hello, could you send the labels back in the order asked? Thank you.
**Result** P, R, Q
(P: 99%, R: 47%, Q: 23%)
